assay: Solubility experiment; format: physicochemical; conditions: medium pH6.8; calculated for crystal form I
PROPERTY MEASURED: Solubility

compound="CCN1CCN(Cc2ccc(Nc3ncc4c(n3)-c3c(nc(C5CC5)n3C(C)C)C4)nc2)CC1 [Crystal form I]" property_measured=Solubility result="2.85 mg/mL"
compound="CCN1CCN(Cc2ccc(Nc3ncc4c(n3)-c3c(nc(C5CC5)n3C(C)C)C4)nc2)CC1 [Crystal form K-1]" property_measured=Solubility result=">33.57 mg/mL"
compound="CCN1CCN(Cc2ccc(Nc3ncc4c(n3)-c3c(nc(C5CC5)n3C(C)C)C4)nc2)CC1 [Crystal form B-1]" property_measured=Solubility result=">27.40 mg/mL"

The reported Solubility of the compound CCN1CCN(Cc2ccc(Nc3ncc4c(n3)-c3c(nc(C5CC5)n3C(C)C)C4)nc2)CC1 [Crystal form A] was 19.66 mg/mL

====

experiment: Solubility experiment; type: physicochemical; details: methyl tert-butyl ether, organic solvent or mixture, thermodynamic from solid, Methyl tert-butyl ether; calculated for crystal form I; read-out: Solubility
PROPERTY MEASURED: Solubility

The reported Solubility of the compound CCN1CCN(Cc2ccc(Nc3ncc4c(n3)-c3c(nc(C5CC5)n3C(C)C)C4)nc2)CC1 [Crystal form I] was > 2000 µg/mL

====

test: Solubility experiment; type: physicochemical; conditions: Ethanol; calculated for crystal form I
Here the recorded Solubility is given for each entry.
Write the number in mg/mL without appending the unit.

compound="CCN1CCN(Cc2ccc(Nc3ncc4c(n3)-c3c(nc(C5CC5)n3C(C)C)C4)nc2)CC1 [Crystal form A]" measurement_units=mg/mL quantitative_result=6.97

Here is another compound to look at.
The reported Solubility of the compound CCN1CCN(Cc2ccc(Nc3ncc4c(n3)-c3c(nc(C5CC5)n3C(C)C)C4)nc2)CC1 [Crystal form B-1] was 19.59

====

assay: Hygroscopicity test (DVS); assay type: physicochemical; settings: humidity increases to 80% RH at 25° C.
Here the recorded hygroscopic weight gain is given for each entry.
Write the number in % without appending the unit.

molecule="CCN1CCN(Cc2ccc(Nc3ncc4c(n3)-c3c(nc(C5CC5)n3C(C)C)C4)nc2)CC1 [Crystal form A]" quantitative_result=0.613
molecule="CCN1CCN(Cc2ccc(Nc3ncc4c(n3)-c3c(nc(C5CC5)n3C(C)C)C4)nc2)CC1 [Crystal form B-1]" quantitative_result=6.88
molecule="CCN1CCN(Cc2ccc(Nc3ncc4c(n3)-c3c(nc(C5CC5)n3C(C)C)C4)nc2)CC1 [Crystal form I]" quantitative_result=8.84

Here is another molecule to look at.
The reported hygroscopic weight gain of the molecule CCN1CCN(Cc2ccc(Nc3ncc4c(n3)-c3c(nc(C5CC5)n3C(C)C)C4)nc2)CC1 [Crystal form K-1] was 30.74

====

assay: Solubility experiment; format: physicochemical; settings: dimethyl sulfoxide, organic solvent or mixture, thermodynamic from solid, Dimethyl sulfoxide; calculated for crystal form I; read-out: Solubility
PROPERTY MEASURED: Solubility

The reported Solubility of the compound CCN1CCN(Cc2ccc(Nc3ncc4c(n3)-c3c(nc(C5CC5)n3C(C)C)C4)nc2)CC1 [Crystal form I] was > 6600 µg/mL

====

experiment: Solubility experiment; type: physicochemical; conditions: Isopropanol; calculated for crystal form I
PROPERTY MEASURED: Solubility

compound="CCN1CCN(Cc2ccc(Nc3ncc4c(n3)-c3c(nc(C5CC5)n3C(C)C)C4)nc2)CC1 [Crystal form I]" result=">20 mg/mL"
compound="CCN1CCN(Cc2ccc(Nc3ncc4c(n3)-c3c(nc(C5CC5)n3C(C)C)C4)nc2)CC1 [Crystal form A]" result="0.26 mg/mL"
compound="CCN1CCN(Cc2ccc(Nc3ncc4c(n3)-c3c(nc(C5CC5)n3C(C)C)C4)nc2)CC1 [Crystal form B-1]" result="0.58 mg/mL"

Here is another compound to look at.
The reported Solubility of the compound CCN1CCN(Cc2ccc(Nc3ncc4c(n3)-c3c(nc(C5CC5)n3C(C)C)C4)nc2)CC1 [Crystal form K-1] was >42.89 mg/mL
